These entries and their values trace back to patent US20110112100A1.

System: 1a-H77 replicon cells
Test: HCV 1a replicon inhibitory activity (Renilla luciferase)
Format: cell-based, hepatitis C virus
Details: Hepatitis C virus; geometric mean, 95% confidence intervals in parentheses; 48 hours; medium with 10% FCS; read-out: IC50 value (95% Confidence Intervals) pM Replicon 1A assay
Procedure: Test compounds were solubilised to 4 mM in 100% DMSO. Dilutions were made to the desired starting concentration in 100% DMSO and then 1 in 3 dilutions made, again in 100% DMSO. 0.5 μl of each sample was added to 384-well assay plates. […] All plates were covered with gas permeable seals and incubated at 37° C., 5% CO2 for 48 hours. […] Luminescence was read immediately using an EnVision (Perkin Elmer) plate reader. […]
// reported IC50 per item
metric: IC50 (pM)

chemical-smiles	value-reported
COC(=O)N[C@H](C(=O)N1CCC[C@H]1c1nc(-c2cnc(-c3cnc4cc(-c5cnc([C@@H]6CCCN6C(=O)[C@@H](NC(=O)OC)C(C)C)[nH]5)ccc4n3)nc2)c[nH]1)C(C)C	671
COC(=O)N[C@H](C(=O)N1CCC[C@H]1c1nc(-c2ccc(-c3cnc4cc(-c5cnc([C@@H]6CCCN6C(=O)[C@@H](NC(=O)OC)[C@@H](C)OC(C)(C)C)[nH]5)ccc4n3)cc2)c[nH]1)C(C)C	43.7
COC(=O)N[C@H](C(=O)N1CCC[C@H]1c1ncc(-c2cnc(-c3ccc4cc(-c5cnc([C@@H]6CCCN6C(=O)[C@@H](NC(=O)OC)C(C)C)[nH]5)ccc4c3)nc2)[nH]1)C(C)C	68.4
